- Test system: DLD-1
- experiment: NCI tumour cell line growth inhibition, 48 h
The source made the active and inactive calls. Rule as the data show it: active = GI50 up to about 1.1 µM and inactive = higher.
readout type: GI50

- CC1(C)CC2(S(=O)(=O)c3ccccc3)ON1CC2S(=O)(=O)c1ccccc1 (stereo not given): > 100 µM (inactive)
- O=C1c2c(O)cccc2C(C(=O)CCCCCC(=O)C2c3cccc(O)c3C(=O)c3c(O)cccc32)c2cccc(O)c21: 1.12 µM (inactive)
- COc1cc([C@H]2c3cc4c(cc3[C@H](NCc3ccc(F)cc3)C3COC(=O)[C@H]32)OCO4)cc(OC)c1O (stereo not given in full): 7.03 µM (inactive)
- COc1cc(/C=C\c2ccc(C)cc2)cc(OC)c1OC: 0.00237 µM (active)
- O=C1C=C[C@@]23CC1C(O)C[C@H]2C=Cc1ccccc13 (stereo not given in full): 45.6 µM (inactive)
- CC(C)(CN1CCCCC1)C(=O)CC(SCCN)c1ccc(Cl)cc1 (stereo not given): 1.59 µM (inactive)
- O=C(O)CN(c1ccccc1)S(=O)(=O)c1cccc([N+](=O)[O-])c1: > 100 µM (inactive)
- CCN(CC)C(=O)CNC(=O)OC(C)(C)C: > 100 µM (inactive)
- O=c1ncccn1C1OC(CO)C(O)C1O (stereo not given): > 100 µM (inactive)
- COC(=O)C1=CC[C@@H]2C(C(=O)O)=CO[C@@H](OC3OC(CO)C(O)C(O)C3O)[C@H]12 (stereo not given in full): > 189 µM (inactive)

###

- Tested on: SK-MEL-2
- experiment: NCI tumour cell line growth inhibition, 48 h
Active and inactive are the calls of the source. Cut-off read from the data, not from the text of the source: active = GI50 up to about 1.1 µM and inactive = higher.
readout type: GI50

• COc1ccc2nc3ccc(OC)cc3c(SCC3CO3)c2c1 (stereo unspecified) = 14.2 µM (inactive)
• NC1C/C(=N\O)c2c(Cl)sc(Cl)c21 (stereo unspecified) = 19.7 µM (inactive)
• O=C(O)Cn1ccc(=O)c2cc([N+](=O)[O-])ccc21 = > 100 µM (inactive)
• Cc1ccc(S(=O)(=O)c2ccsc2NC(=O)C(F)(F)F)cc1 = 26.3 µM (inactive)
• CC(C)(C)/N=C\N1CCC(C(c2ccccc2)c2ccccc2)CC1 = > 100 µM (inactive)
• CCOc1ccc(/N=C\c2ccc3cc(C)ccc3n2)cc1 = 45.1 µM (inactive)

###

- Tested on: TK-10
- experiment: NCI tumour cell line growth inhibition, 48 h
The source made the active and inactive calls. Cut-off read from the data, not from the text of the source: active = GI50 up to about 1.1 µM and inactive = higher.
readout type: GI50

• CCC(C)C1(O)OC2CC3(C)OC(=CC3=O)/C(C)=C\C3OC(=O)C1(C)C32 (stereo not given) = 21 µM (inactive)
• C=C1CC[C@@H]2C(C)(C)CCC[C@@]2(C)[C@@H]1Cc1cc(O)ccc1O = 3.17 µM (inactive)
• O=C1CSC2(CCN(CCCN3c4ccccc4Sc4ccc(Cl)cc43)CC2)N1 = 9.4 µM (inactive)
• O=[N+]([O-])c1ccccc1S(=O)(=O)c1cc(Cl)cc2c1NCCC2 = > 100 µM (inactive)
• COc1cc2oc(=O)ccc2cc1C(=O)CC(C)C = > 100 µM (inactive)

###

Below is a list of entries, each paired with its recorded GI50 value.
- Test system: MDA-MB-231
- experiment: NCI tumour cell line growth inhibition, 48 h
Calls of active or inactive are those of the source. Rule as the data show it: active = GI50 up to about 1.1 µM and inactive = higher.
readout type: GI50

* CC1OC(OC2C(OC(=O)[C@@H]3CC(C)(C)C[C@H]4C5=CC[C@@H]6[C@@]7(C)C[C@H](O)[C@H](OC8OC(CO)C(O)C(O)C8O)[C@@](C)(CO)[C@@H]7[C@H](O)C[C@@]6(C)[C@]5(C)CC[C@@]34C)OCC(O)C2O)C(O)C(O)C1O (stereo partly drawn) | > 7.5 µM (inactive)
* CN1N(c2ccccc2)C(=O)C2=NC=C(C(=O)c3ccccc3)C(=N)C21C (stereo not drawn) | > 100 µM (inactive)
* O=C(/C=C/c1ccc(/C=C/C(=O)c2ccc(O)cc2)cc1)c1ccc(O)cc1 | > 100 µM (inactive)
* Clc1ccc(Cn2cc(/C=N/n3cnnc3)c3ccccc32)cc1 | 20.4 µM (inactive)
* O=C(c1ccccc1)c1ccc2c(c1)nc1n2C(c2c(F)cccc2F)SC1 (stereo not drawn) | 41.9 µM (inactive)
* CCCC(=O)Nc1ccc2c(c1)CN1C(=O)c3ccccc3C1=N2 | > 100 µM (inactive)
* CN1CCC/C1=C1/C(=O)N(c2ccccc2)N=C1c1ccc[nH]1 | > 100 µM (inactive)
* CCOC(=O)c1nc2ccc(C(F)(F)F)cc2nc1Oc1ccc(C#N)cc1 | 12.9 µM (inactive)

Data credit: ChEMBL document CHEMBL1201862
